Quick list: melting point per entry.

compound	melting point
COC(=O)C(c1ccc(-c2ccccc2F)cc1)S(C)=O (stereo not given)	79 to 80 °C
Cc1ccc(OCCCN2CCN(c3ccc(Cl)nn3)CC2)cc1	129 to 131 °C
CNC(=O)c1cc(Oc2ccc3c(C(=O)Nc4cccc(C(F)(F)F)c4)cccc3c2)ccn1	175 to 177 °C
CCOP(=O)(OCC)C1CCn2c(=O)c(=O)[nH]c3cc(C(F)(F)F)cc1c32 (stereo not given)	250 °C
Cc1ccc(S(=O)O)cc1	55 to 57 °C

###

# maps each entry to its melting point

compound	melting point
CSc1nc(-c2cc(C(C)(C)C)c(O)c(C(C)(C)C)c2)cs1	92 to 93 °C
NS(=O)(=O)c1ccc(-c2ccccc2-c2ccc(C(F)(F)F)cc2)cc1	188 °C
Cc1oc(-c2ccccc2)nc1COc1ccc(Cn2cc(C(=O)O)c(-c3ccccc3)n2)cc1	165 to 166 °C
COc1ccc2nc(-c3ccc(N)cc3)sc2c1	191 to 193 °C
Cc1[nH]c(=O)c(C#N)cc1-c1ccc(S(C)=O)cc1 (stereo unspecified)	290 to 291 °C
C=C1CCC2C3CCC4=CC(=O)C=CC4(C)C3CCC12C (stereo unspecified)	155 to 157 °C
Cc1cc2cn[nH]c(=O)c2n1CC(C)C	188 to 191 °C
N#Cc1ccc(Nn2cnnc2)cc1-c1ccoc1	199 to 200 °C
CCNC(=O)N(Cc1ccc(Cl)cc1)C1CC2CCC1C2 (stereo unspecified)	132 to 133 °C
N#Cc1cnn2c1N(C(=O)CI)CC=C2c1cccc(C(F)(F)F)c1	158 to 160 °C
Nc1nc2cccnc2c2c1nc(CO)n2CC1(O)CCOCC1	> 250 °C

###

Recorded melting point by entry

compound	melting point
COc1cc(N)c(Cl)cc1C(=O)NCC1CCN(CCCCCNC(=O)Nc2ccccc2)CC1	214 to 217 °C
CCOC(=O)CCc1nc(-c2cc3ccccc3o2)cs1	65 to 66 °C
COc1ccc(-c2[nH]cnc2-c2cc(OC)c(N)c(OC)c2)cc1F	101 to 103 °C
O=C1N(c2ccccc2)c2ccccc2C1(Cc1ccncc1)Cc1ccc([N+](=O)[O-])cc1 (stereo not given)	168 to 169 °C
CCc1cc(-c2ccc(Cl)cc2)nc2c(C(=O)O)cnn12	227 °C
O=C1Nc2cc(Cl)ccc2Nc2cscc21	212 to 213 °C
Cn1ncnc1COc1nc2c(-c3ccccc3F)nncn2c1C1CCC1	120 °C
CCOC(=O)c1c(NCCc2ccccc2)n[nH]c1C	138 to 139 °C
O=C(O)C(O)c1ccc2nc(-c3ccc(Cl)cc3)oc2c1 (stereo not given)	222 to 224 °C
COc1ccc(C#N)cc1/C=C/C(=O)O	252 to 253 °C

###

In this section, each of the compounds is paired with its reported melting point.

compound	melting point
COc1ccc(OC)c(C(=O)C#CC(=O)O)c1	91 to 93 °C
O=C(O)c1ccc(-c2nc(-c3ccccc3C(F)(F)F)co2)cc1	264 to 265 °C
COc1ccccc1NS(=O)(=O)c1cccc([N+](=O)[O-])c1	130 to 132 °C
CCOC(=O)c1ccc(NC(=O)C(C)C)c([N+](=O)[O-])c1	74 to 76 °C
CCc1cc(Oc2ccc(S(C)(=O)=O)nc2)cc2cc(C3=NCC(CC(=O)NC)S3)[nH]c12 (stereo not given)	189 to 190 °C
CCCCOc1nsnc1S(C)(=O)=O	39 to 40 °C
Cc1c(-c2ccccc2)c(N2CC[C@H](N(C)C)C2)c2oc(-c3ccccc3O)nc2c1C#N	159 to 162 °C
Cc1nc(-n2ccc(CCc3ccccc3)cc2=O)sc1C(=O)NCc1ccccc1	149 to 150 °C
CCCS(=O)(=O)c1ccccc1S(=O)(=O)NC(=O)Nc1nc(Cl)cc(OC)n1	193 to 195 °C
c1ccc(-c2cc3ccc4ccccc4n3n2)cc1	85 to 86 °C
CS(=O)(=O)c1ccc(-c2sc(-c3ccccc3Cl)nc2-c2cccs2)cc1	171 to 174 °C
COc1ccc(COC(=O)C2=C3[C@@H](C)[C@H](C)[C@@H]3S[C@@H]3[C@H](NC(=O)Cc4ccccc4)C(=O)N23)cc1	172 to 173 °C
COc1cc2nc(CSc3ncnc4[nH]cnc34)n(-c3ccccc3Cl)c(=O)c2cc1OC	160 to 180 °C
OC1CCC(n2cnc3cc(Cl)c(Cl)cc32)C1O (stereo not given)	180 to 182 °C
COc1ccc2c(c1)C(=O)N(c1ccc3c(c1)N(C)CCN3C)C2	137 to 142 °C
COC(=O)c1ccc(-c2nc(-c3ccc(C(C)C)cc3)cs2)cc1	134 to 135 °C
O=C(C(=O)c1ccc(C(F)(F)F)cc1)c1ccc(C(F)(F)F)cc1	141 to 142 °C
CC(C)CCCC(C)NC(=O)Oc1ccc2oc3ccccc3c2c1 (stereo not given)	114 to 115 °C
NC(=O)C(Nc1ccc(Cl)cc1)c1c(Cl)ccc(N)c1Cl (stereo not given)	232 °C
O=[N+]([O-])c1cccc(-c2coc3ccccc23)c1	86 to 86.5 °C
